Tested on: biotinyl-Phe-oxazolone
procedure details: self-aminoacylation, catalytic enhancement (BFO) (fold over background); higher = more active; k-Seq, kA / k0A0; sequences stand for … in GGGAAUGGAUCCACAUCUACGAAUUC…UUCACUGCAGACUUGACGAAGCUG
Fewer inactive variants are shown than the library holds.

>  <sequence entry>
AUUACCAUAGUCAUCGAGUGA [Fam2.1 aminoacylation ribozyme variant]

>  <self-aminoacylation>
43.4

$$$$
>  <sequence entry>
CUACUUCAAACAACCGGGCUG [Fam1A.1 aminoacylation ribozyme variant]

>  <self-aminoacylation>
2.15

$$$$
>  <sequence entry>
AUUCACCUAGUUCAUCGAGUG [Fam2.2 aminoacylation ribozyme variant]

>  <self-aminoacylation>
1.17

$$$$
>  <sequence entry>
CUACUUCAAGCAAUCGGUCUA [Fam1A.1 aminoacylation ribozyme variant]

>  <self-aminoacylation>
7.64

$$$$
>  <sequence entry>
AUUCACCUGGGUCAACGGGUG [Fam2.2 aminoacylation ribozyme variant]

>  <self-aminoacylation>
22.8

$$$$
>  <sequence entry>
GUUCCCCUAGGUCAUCGGGUG [Fam2.2 aminoacylation ribozyme variant]

>  <self-aminoacylation>
94.8

$$$$
>  <sequence entry>
ACCCACCUAGGUCAUCGGGUG [Fam2.2 aminoacylation ribozyme variant]

>  <self-aminoacylation>
54

$$$$
>  <sequence entry>
AAGUUUGCUAAUAGUCGGAAU [Fam3.1 aminoacylation ribozyme variant]

>  <self-aminoacylation>
1.54

$$$$
>  <sequence entry>
AAGUUUGCUAUUACUCGCAAG [Fam3.1 aminoacylation ribozyme variant]

>  <self-aminoacylation>
1.09

$$$$
>  <sequence entry>
AAGCUUGCUAAUCGUCGCAAG [Fam3.1 aminoacylation ribozyme variant]

>  <self-aminoacylation>
2.14

$$$$
>  <sequence entry>
CUACUUCAUACAAUCGGUUUG [Fam1A.1 aminoacylation ribozyme variant]

>  <self-aminoacylation>
0.619

$$$$
>  <sequence entry>
AAGUUUGCCAAUAGUCGCAUG [Fam3.1 aminoacylation ribozyme variant]

>  <self-aminoacylation>
1.7

$$$$
>  <sequence entry>
CCCCGCUUCAAGCAAUCGGUC [Fam1B.1 aminoacylation ribozyme variant]

>  <self-aminoacylation>
142

$$$$
>  <sequence entry>
CUUCCCCUGGUCAUCGAGUGA [Fam2.1 aminoacylation ribozyme variant]

>  <self-aminoacylation>
40.1

$$$$
>  <sequence entry>
AUUCACCAAGGUCAUCGGAUG [Fam2.2 aminoacylation ribozyme variant]

>  <self-aminoacylation>
1.12

$$$$
>  <sequence entry>
CCACGCUUCAAGCAAUCCGUC [Fam1B.1 aminoacylation ribozyme variant]

>  <self-aminoacylation>
1.34

$$$$
>  <sequence entry>
CCACACUUCCAGCAAUCGAUC [Fam1B.1 aminoacylation ribozyme variant]

>  <self-aminoacylation>
0.92

$$$$
>  <sequence entry>
CCACACUUCGAGCAAUCGGAC [Fam1B.1 aminoacylation ribozyme variant]

>  <self-aminoacylation>
0.331

$$$$

----------
Test system: biotinyl-Ile-oxazolone
procedure details: self-aminoacylation, catalytic enhancement (BIO) (fold over background); higher = more active; k-Seq, kA / k0A0; sequences stand for … in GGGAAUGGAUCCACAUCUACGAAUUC…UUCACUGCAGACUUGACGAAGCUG
Fewer inactive variants are shown than the library holds.

>  <sequence entry>
AUUACCCUGGUCAUCUAGUAA [Fam2.1 aminoacylation ribozyme variant]

>  <self-aminoacylation>
1.1

$$$$
>  <sequence entry>
AAGUUGGCUAAUAAUCGCAAG [Fam3.1 aminoacylation ribozyme variant]

>  <self-aminoacylation>
1.72

$$$$
>  <sequence entry>
CCACACAUUAAGCAAUCGGUC [Fam1B.1 aminoacylation ribozyme variant]

>  <self-aminoacylation>
0.966

$$$$
>  <sequence entry>
AUUACCUUGGUCAUCGGGUGA [Fam2.1 aminoacylation ribozyme variant]

>  <self-aminoacylation>
5.69

$$$$
>  <sequence entry>
CCGCACUUCAAGGAAUCGGUC [Fam1B.1 aminoacylation ribozyme variant]

>  <self-aminoacylation>
1.45

$$$$
>  <sequence entry>
AAGUUCGCUAAUAGUCGCAUG [Fam3.1 aminoacylation ribozyme variant]

>  <self-aminoacylation>
2.16

$$$$
>  <sequence entry>
CUACUUCAAGCGAUCGGUCUG [Fam1A.1 aminoacylation ribozyme variant]

>  <self-aminoacylation>
0.77

$$$$
>  <sequence entry>
CUACUUCAAAGAAUCGGUCGG [Fam1A.1 aminoacylation ribozyme variant]

>  <self-aminoacylation>
0.763

$$$$
>  <sequence entry>
AAGUUUUCUAAGAGUCGCAAG [Fam3.1 aminoacylation ribozyme variant]

>  <self-aminoacylation>
1.65

$$$$
>  <sequence entry>
UUUACCCUGUUCAUCGAGUGA [Fam2.1 aminoacylation ribozyme variant]

>  <self-aminoacylation>
2.21

$$$$
>  <sequence entry>
AUAACCUUGGUCAUCGAGUGA [Fam2.1 aminoacylation ribozyme variant]

>  <self-aminoacylation>
2.94

$$$$
>  <sequence entry>
AUUCACCUGGGUCAUCGGGUU [Fam2.2 aminoacylation ribozyme variant]

>  <self-aminoacylation>
4.39

$$$$
>  <sequence entry>
AUUACCCUAGUCCUCGAGUGA [Fam2.1 aminoacylation ribozyme variant]

>  <self-aminoacylation>
2.2

$$$$
>  <sequence entry>
AAGAUUGCUAAAAGUCGCAAG [Fam3.1 aminoacylation ribozyme variant]

>  <self-aminoacylation>
1.66

$$$$
>  <sequence entry>
CUACUCCAUACAAUCGGUCUG [Fam1A.1 aminoacylation ribozyme variant]

>  <self-aminoacylation>
0.833

$$$$
>  <sequence entry>
CUACUACAAACAAUCCGUCUG [Fam1A.1 aminoacylation ribozyme variant]

>  <self-aminoacylation>
0.717

$$$$
>  <sequence entry>
AUCAACCUGGUCAUCGAGUGA [Fam2.1 aminoacylation ribozyme variant]

>  <self-aminoacylation>
5.12

$$$$
>  <sequence entry>
AUUACUCUGGUCAACGAGUGA [Fam2.1 aminoacylation ribozyme variant]

>  <self-aminoacylation>
3.12

$$$$
